# System: IICR (IP3 induced calcium release) in CHO cells
# experiment-description: Assay of IICR (IP3 induced calcium release)-inhibiting action
# Type: cell-based, Chinese hamster
# condition: Cricetulus griseus, CHO, test compound 30 μmol; CHO cells, 10 μM ATP; read-out: IICR level (percentage of inhibition)
readout-kind: inhibition at 30 µM (%)
Report the figure in % without appending any unit label.

Q: Please look up its inhibition at 30 µM: NCCCNCCCCNCCC(=O)c1ccc2ccccc2c1
Ans: 0

Q: Now the compound CC(C)N(CC(=O)c1ccccc1)Cc1ccccc1
Ans: 0

Q: Now the compound CCCCN(CCC(=O)c1ccc(Br)s1)Cc1ccccc1
Ans: 36

Q: Now the compound O=C(CCN(CCO)c1ccccc1)c1ccco1
Ans: 20

Q: Now the compound O=C(CCN(CCO)Cc1ccccc1)c1ccc2c(Cl)cccc2c1
Ans: 80

Q: Now the compound O=C(CCNCCSSCCNCCC(=O)c1ccc(I)s1)c1ccc(I)s1
Ans: 65

Q: Now the compound CC(C)(C)N(CCC(=O)c1ccco1)Cc1ccccc1
Ans: 50

Q: Now the compound CC(C)N(CCO)CCC(=O)c1cc2ccccc2s1
Ans: 0

Q: Now the compound CCN(CCC(=O)c1ccc(Br)s1)Cc1ccccc1
Ans: 70

Q: Now the compound CC(CN(Cc1ccccc1)C(C)C)C(=O)c1ccccc1F (stereo not shown)
Ans: 0
